Molecular target: glycogen synthase kinase-3 β (GSK-3β) (Homo sapiens, UniProt P49841)
Sequence (P49841 whole entry): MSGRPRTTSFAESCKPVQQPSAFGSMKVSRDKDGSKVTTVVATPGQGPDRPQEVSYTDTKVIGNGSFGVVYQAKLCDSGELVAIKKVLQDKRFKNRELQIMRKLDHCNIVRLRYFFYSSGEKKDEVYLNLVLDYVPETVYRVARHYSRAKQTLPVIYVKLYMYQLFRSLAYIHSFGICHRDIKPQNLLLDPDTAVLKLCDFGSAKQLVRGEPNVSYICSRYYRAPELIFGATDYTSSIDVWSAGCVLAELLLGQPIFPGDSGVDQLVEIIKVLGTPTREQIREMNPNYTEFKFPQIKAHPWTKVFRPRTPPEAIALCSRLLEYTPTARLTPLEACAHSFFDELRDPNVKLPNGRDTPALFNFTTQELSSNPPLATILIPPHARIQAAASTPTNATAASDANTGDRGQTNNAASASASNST
MEASUREMENT NAME: IC50 (nM)

1) NCCO/N=C1/C(=C2/C(=O)Nc3ccc([N+](=O)[O-])cc32)Nc2ccc(O)cc21    5.46
